Origin of measurements: paper PMC12406685

# Tested on: human hepatoblastoma cells (HepG2)
# PROTOCOL_TEXT: In vitro HepG2 proliferation assay (Incucyte confluency)
# Assay type: cell-based
# COND: 200 µM, RPMI-1640 with 1 µM pantothenate
READOUT: Effect on HepG2 cells, in words

# MOLECULE, SYSTEM_TESTED, ENDPOINT_RESULT
measured = [
    ("CC(C)(CO)[C@@H](O)C(=O)NCc1cnc(-c2ccccc2)s1 [Compound 3f]", "human hepatoblastoma cells (HepG2)", "completely inactive"),
    ("CCCCc1csc(CNC(=O)[C@H](O)C(C)(C)CO)n1 [Compound 1a]", "human hepatoblastoma cells (HepG2)", "some low-level toxicity"),
    ("CCCCCc1csc(CNC(=O)[C@H](O)C(C)(C)CO)n1 [Compound 1c]", "human hepatoblastoma cells (HepG2)", "some low-level toxicity"),
    ("CC(C)(CO)[C@@H](O)C(=O)NCc1nc(CCc2ccccc2)cs1 [Compound 1e]", "human hepatoblastoma cells (HepG2)", "some low-level toxicity"),
    ("CC(C)(CO)[C@@H](O)C(=O)NCc1csc(Cc2ccccc2)n1 [Compound 2c]", "human hepatoblastoma cells (HepG2)", "completely inactive"),
    ("CC(C)(CO)[C@@H](O)C(=O)NCc1csc(-c2ccccc2)n1 [Compound 2e]", "human hepatoblastoma cells (HepG2)", "completely inactive"),
]
